assay: Inhibition of Smo in mouse Shh Light2 cells assessed as inhibition of SAG-induced Hh pathway activity by measuring SAG-EC50 at 100 nM measured after 36 hrs by Gli-luciferase reporter gene assay (Rvb = 2.93 nM)
Readout Kind: EC50
Please make sure the unit comes right after the number.

Prompt: Look up EC50 for this compound: Cc1ccc2c(n1)[C@H]([C@@H](C)C(=O)Nc1ccc(Cl)c(-c3nc4ccccc4n3C)c1)CC[C@H]2C
Response: 47 nM

====

test: Inhibition of Smo in mouse Shh Light2 cells assessed as inhibition of SAG-induced Hh pathway activity by measuring SAG-EC50 at 50 nM measured after 36 hrs by Gli-luciferase reporter gene assay (Rvb = 2.93 nM)
Readout Kind: EC50 (µM)
# value in µM; strip the unit string

Prompt: Look up EC50 for this compound: Cc1ccc2c(n1)[C@H]([C@@H](C)C(=O)Nc1ccc(Cl)c(-c3nc4ccccc4n3C)c1)CC[C@H]2C
Response: 0.024

====

test: Inhibition of Smo in mouse Shh Light2 cells assessed as inhibition of SAG-induced Hh pathway activity by measuring SAG-EC50 at 500 nM measured after 36 hrs by Gli-luciferase reporter gene assay (Rvb = 2.93 nM)
Readout Kind: EC50
Please make sure the unit comes right after the number.

Prompt: Look up EC50 for this compound: Cc1ccc2c(n1)[C@H]([C@@H](C)C(=O)Nc1ccc(Cl)c(-c3nc4ccccc4n3C)c1)CC[C@H]2C
Response: 137 nM
